test system: EV71-B5 (strain TW/96016/08 genogroup B5); assay: Virus-cell-based antiviral assay (CPE reduction, MTS); set-up: species or system enterovirus 71; settings: Enterovirus A; EV71 strain TW/96016/08 genogroup B5; RD cells
Exercise: state measured EC50 for each of the molecules provided.
Numbers only, in nM.

CCON=Cc1ccc(OCCC(C)CCN2CCN(c3ccncc3)C2=O)cc1 (centres unmarked)    0.93

Lab note: next molecule to report on.
Request: Record CCON=Cc1ccc(OCCC(C)CCN2CCN(c3ccnc(C(N)=O)c3)C2=O)cc1 (centres unmarked) : what is its EC50 with EV71-B5 (strain TW/96016/08 genogroup B5)?
Result: 82
